PROCEDURE TEXT: yeast display, Sf9 membrane polyspecificity reagent, FACS + sequencing; frameworks hold sequencing errors
READOUT TYPE: polyreactivity (PSR sort gate)

QVQLVESGGGLVQAGGSLRLSCAASGSICGGYAMGWYRQAPGKERELVAGITRSGGSTYYADSVKGRFTISRDNAKNTVYLQMNSLKPEDTAVYYCAVEIQFYRSPRKVRSYDYWGQGTQVTVSS    low polyreactivity
QVQLVESGGGLVQAGGSLRLSCAASGFIFTDNAMGWYRQAPGKERELVAAISKNGGSTYYADSVKGRFTISRDNAKNTVYLQMNSLKPDDTAVYYCNAVRRDSGTYRSPDTTRYDYWGQVTQVTVSS    high polyreactivity
QLQLVESGGGLVQAGGSLRRSCAPSGRILWVNAMGWSRQAPGKERELVAAISLSGGRTYYADSVKGRFTISRDNAKNTVYLQMNSLKPEDTAVYYCAARTVNYYYTTGDYWGQGTQVTVSS    low polyreactivity
QVQLVESGGGLVQAGGSLRLSCAASGRTFIKYALGSYRQAPGKERELVAAISRNGGSTNYADSVKGRFTISRDNAKNTVYLLMNSLKPEDPAVYYCAAVGTVSRTVGYNYWGQGSQVTVSS    high polyreactivity
QEQLVETVVGLVQARGSLRLRSAASGITFRKYAMRWYRQAPGKERDFVAAITRGGRTYYADSVKGRFTISRENAKNTVYLQMNSLKPEDTAVYYCAACTVVYAGSTYLQPFDYWGQGTQVTVSS    high polyreactivity
